src = patent US11667697

- TARGET UNDER TEST: VACV B5 protein (vaccinia virus, UniProt Q01227 20-275)
- ASSAY NAME: purified antigen ELISA
EC50: recorded values
Number only, in µg/mL; omit the unit.

BINDER | SCALE UNIT | EC50
MPXV-2 (antibody, V domains shown, human IgG1, anti-B5) VH: QVQLVQSGAEVKKPGASVKVSCKTSGYTFTTYAVHWVRQAPGQRLEWMGWINPGDGDTRYAQKFQDRVTISSDTSATTVYMELSSLRSEDTAVYFCARPRASLLRYFDWLFEQWGQETLVTVSS VL: EIVLTQSPGTLSLSPGDRATLSCGASQSIHHNYVAWYQQRPGQAPRLLIFGASSRATGIPDRFTGSGSGTEFTLTINRLEPEDFAVYYCQQYGNSVPYSFGQGTKVDIK | µg/mL | 0.03
MPXV-25 (antibody, V domains shown, human IgG1, anti-B5) V domain 1: QVQLVESGGGVVQPGRSLKISCAASGFTFSDSGLHWVRQAPGKGLECVAFIWYDGSTKYYADSVKGRFTISRDNSRNTLYLQMKSLRAEDTAVYYCARELGYCSGGTCYSMGAFDIWGQGTLVTVSQ V domain 2: QSVLTQPASVSGSPGQSITISCTGTSSDVGSYNLVSWYQQHPGKAPKLMIYEVSKRPSGVSNRFSGSKSDNTASLTISGLQAEDEADYYCCSYVGSSTSVFGGGTQVTVL | µg/mL | 0.19

What value of EC50 has been reported for the following binder? VACV-59 (antibody, V domains shown, human IgG2, anti-B5) VH: QVQLVQSGGGLVKPGGSLRLSCAASGFTFSDYYMSWIRQAPGKGLEWVSYISTSGSTIYYADSVKGRFTISRDNAKNSLYLQMNSLRAEDTAMYYCARDGDGSGSYTPPYYYYGLDVWGQGTTVTVSS VL: DIQMTQSPSSLSASVGDRVTITCRASQSIRNYLNWYQQKSGKAPKLLIYAASSLQSGVPSRFSGSGSGTDFTLTISSLHPEDFATYYCQQSYSTPPLTFGGGTKVEIK
0.14
